Source: PubChem BioAssay AID1259418

Target: T. gondii ME49Luc in IFN-y HeLa, luciferase, 72 h
Assay: T. gondii growth inhibition with IFN-gamma, dose response, cell-based, ME49Luc, HeLa, luciferase, 72 h (AID 1259418)
Inconclusive results are not listed.
Listed here are compounds together with their documented AC50.
measured.metric: AC50

1) COc1ccc(C#Cc2ccc([C@H]3[C@H]4CN(C(=O)NC(C)C)CC(=O)N4[C@H]3CO)cc2)cc1 : 18.5 µM
2) COc1cccc(NC(=O)N2CC(=O)N3[C@@H](CO)[C@@H](c4ccc(C#CCC5CCCC5)cc4)[C@@H]3C2)c1 : 22.5 µM
3) CCc1ccc(S(=O)(=O)N2CCC3(CC2)NCCN=C3NC2CCCCCC2)cc1 : 5.05 µM
4) COCCNc1nc(-c2ccc(OC)cc2)nc2ccccc12 : 18.4 µM
5) Cc1cc(C2CCCN2Cc2cn(C(C)C)c3ccccc23)no1 (stereo not given) : 35.1 µM

---

Target: T. gondii ME49Luc in IFN-y HeLa, luciferase, 72 h
Assay: T. gondii growth inhibition with IFN-gamma, dose response, cell-based, ME49Luc, HeLa, luciferase, 72 h (AID 1259418)
Records with an inconclusive call do not appear.
measured.metric: AC50

1. Cc1ccc(-c2nc(CN3CCN(C(=O)Nc4ccc(F)cc4)CC3)c(C)o2)cc1 : 33.3 µM
2. CCc1ccc(S(=O)(=O)N2CCC[C@@H]2C(=O)NCCc2csc(-c3ccccc3)n2)cc1 : 21.8 µM
3. COc1cccc(-c2nc3c(s2)CN(S(=O)(=O)c2cccc(F)c2)CC3)c1 : 11.3 µM
4. CCCC#Cc1ccc([C@H]2[C@H](CO)N3C(=O)CN(C(=O)Nc4cccc(F)c4)C[C@@H]23)cc1 : 10.4 µM
5. COc1ccc(-c2nc(NCCc3ccc(OC)c(OC)c3)c3ccccc3n2)cc1 : 17.4 µM
6. COc1ccc(-c2nc(NCCN3CCCCC3C)c3ccccc3n2)cc1 (centres undefined) : 13.4 µM
7. Cc1cccc(CNC2=NCCNC23CCN(S(=O)(=O)c2cc(C)c(C)cc2C)CC3)c1 : 5.49 µM
8. O=C(NCCc1csc(-c2ccccc2)n1)C1CCN(S(=O)(=O)c2ccc(Cl)cc2)CC1 : 14.6 µM
9. CCCc1cc(C2CCCN2C(=O)Cn2nc(C(F)(F)F)c3c2CCCC3)no1 (centres undefined) : 21.6 µM

---

Molecular target: T. gondii ME49Luc in IFN-y HeLa, luciferase, 72 h
Experiment: T. gondii growth inhibition with IFN-gamma, dose response, cell-based, ME49Luc, HeLa, luciferase, 72 h (AID 1259418)
Records with an inconclusive call do not appear. Calls of active or inactive are those of the source.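 Rule for the calls: active = fitted half-maximal concentration of signal decrease at or below twice the sample's top tested concentration; inconclusive = flat curve between -70 and -30 percent, or poor fit; inactive = flat within 30 percent, signal rise, or potency above limit.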
Possible outcomes: True for active, False for inactive

1. COCCCNc1ncnc2c1cnn2-c1cccc(C)c1 : True
2. COc1ccc(-c2nc(NCCCN3CCOCC3)c3ccccc3n2)cc1 : True
3. COc1ccccc1-c1noc(-c2nnn(Cc3nc(-c4ccccc4OC)oc3C)c2C)n1 : False
4. COc1ccccc1-c1nc(Cn2nnc(-c3nc(-c4ccc(C)cc4)no3)c2C)c(C)o1 : False
5. CCN1CCCC1CNC(=O)C1CCN(Cc2cc3ccccc3n2Cc2ccc(F)cc2)CC1 (centres undefined) : True
6. C/C=C/c1ccc([C@H]2[C@@H](CO)N3CCCCN(S(=O)(=O)c4ccc(OC)cc4)C[C@@H]23)cc1 : True
7. CCCNc1nc(-c2ccccc2Cl)nc2ccccc12 : True
8. O=S(=O)(c1ccc2c(c1)CCCC2)N1CCC2(CC1)NCCN=C2NCc1ccccc1F : True
9. O=C(NC1CCCC1)N1CCCCN2[C@@H](CO)[C@H](c3ccc(-c4cccnc4)cc3)[C@@H]2C1 : True
10. CCOc1ccc(CC(=O)N2CCC3(CC2)Nc2cc(F)ccc2-n2cccc23)cc1OCC : False
11. COc1ccccc1NS(=O)(=O)c1cc2c3c(c1)CCC(=O)N3CCC2 : True
12. c1ccc2c(Oc3nc(Nc4ccc(N5CCOCC5)cc4)c4ncn(C5CCCCC5)c4n3)cccc2c1 : True
13. O=C(CC1Nc2c3ccccc3nc(=S)n2C1=O)NCCN1CCN(c2cccc(Cl)c2)CC1 (centres undefined) : True
14. CC(C)c1ccc(S(=O)(=O)N2CCC(C(=O)NCCc3csc(-c4ccccc4)n3)CC2)cc1 : True
15. Fc1ccc(Nc2nc(SCc3ccccc3Cl)nc3ccccc23)cc1F : True
16. CCCNC(=O)[C@@H]1[C@@H](CO)[C@@H]2Cn3c(ccc(/C=C/c4ccccc4)c3=O)[C@@H]2N1CC1CC1 : True
17. O=C(CC1N=C2c3ccccc3N=C(SCc3cccc(F)c3)N2C1=O)NC1CCCCC1 (centres undefined) : True
18. Cc1ccc(CNC(=O)COc2nc(C)nc3ccccc23)cc1 : False
19. COc1cccc(CNC2=NCCNC23CCN(S(=O)(=O)c2ccc(Cl)s2)CC3)c1 : True
20. CCOc1ccccc1-c1nc(CN(c2cccc(OC)c2)S(=O)(=O)c2ccccc2)c(C)o1 : False
21. COc1ccc(-c2nc(Nc3ccc(C)cc3)c3ccccc3n2)cc1 : True
22. Cc1ccccc1-c1ccc(C2[C@@H]3CN(C(=O)c4ccc(F)cc4)C[C@H]2N3)cc1 (some centres undefined) : True
23. Oc1cccc(-c2nccn2-c2cccc(-c3ccn[nH]3)c2)c1 : True
24. Cc1ccccc1Cn1c(CN2CCC(C(=O)NCCCN3CCCC3=O)CC2)cc2ccccc21 : False
25. O=C(CCC1N=C2c3ccccc3N=C(SCc3ccccc3F)N2C1=O)NCc1ccccc1 (centres undefined) : True
26. FC(F)(F)C1CN(c2cc(-c3ccccc3)nc3ccccc23)CCO1 (centres undefined) : True
27. CCOc1ccccc1NS(=O)(=O)c1cc2c3c(c1)CCC(=O)N3CCC2 : True
28. C[C@@H]1CN(Cc2ccc(F)cc2)CCN1C(=O)COc1ccc(Cl)cc1NC(N)=O : False
29. C(=C\c1ccc(C2[C@@H]3CN(Cc4ccc5c(c4)OCO5)C[C@H]2N3)cc1)/c1ccccc1 (some centres undefined) : True
30. Cc1ccc(Nc2nc(-c3ccccc3Cl)nc3ccccc23)cc1 : True
31. CC(C)Cc1ccc(S(=O)(=O)N2CCC3(CC2)NCCN=C3NCc2ccc(Cl)cc2)cc1 : True
32. O=C(CC1N=C2c3ccccc3N=C(SCc3ccccc3F)N2C1=O)NCCc1ccccc1 (centres undefined) : False
33. COc1ccc(-c2nc(Cn3nnc(-c4nc(-c5ccncc5)no4)c3C)c(C)o2)cc1 : False
34. CCc1cc(C(=O)Nc2ccc(C)cc2-c2cc(C)[nH]n2)c2c(C)noc2n1 : True
35. CC(C)C#Cc1ccc([C@H]2[C@@H](C#N)N(C(=O)c3cccc(F)c3)[C@@H]2CO)cc1 : True
36. O=C(CC1CC1)N1CC[C@@H]2[C@H]1c1cc(-c3ccc(F)cc3)ccc1N[C@@H]2CO : True
37. O=C(Cc1ccncc1)N1C[C@@H]2N[C@H](C1)C2c1ccc(/C=C/c2ccccc2)cc1 (some centres undefined) : True
38. Fc1ccccc1CSc1nc(NCc2ccccc2)c2ccccc2n1 : True
39. OC[C@H]1Nc2ccc(C#Cc3ccc(F)cc3)cc2[C@H]2[C@@H]1CCN2Cc1ccc2c(c1)OCO2 : True
